- experimental system: CDK12–cyclin K and DDB1 (Homo sapiens, UniProt Q16531+Q9NYV4, K965R)
- Construct: His6–CDK12 (a.a. 713–1,052); full-length or beta-propeller B domain deletion (ΔBPB: a.a. 396–705 deleted) constructs of His6–DDB1ΔBPB, StrepII–Avi–DDB1, or His6–Spy–DDB1; made in house; host or cells: Trichoplusia ni High Five insect cells (baculovirus)
- Sequence (Q9NYV4 713-1052 K965R): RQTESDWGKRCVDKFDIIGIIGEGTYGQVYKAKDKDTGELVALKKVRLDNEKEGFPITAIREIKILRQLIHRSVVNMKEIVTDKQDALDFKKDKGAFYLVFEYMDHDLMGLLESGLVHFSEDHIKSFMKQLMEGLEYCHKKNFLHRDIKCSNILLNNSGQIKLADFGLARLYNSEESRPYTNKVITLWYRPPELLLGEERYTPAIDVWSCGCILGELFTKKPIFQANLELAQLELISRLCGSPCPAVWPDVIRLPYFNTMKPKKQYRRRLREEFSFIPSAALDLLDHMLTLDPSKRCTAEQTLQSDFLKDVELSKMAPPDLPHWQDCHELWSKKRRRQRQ
- Sequence (O75909 1-267 partner): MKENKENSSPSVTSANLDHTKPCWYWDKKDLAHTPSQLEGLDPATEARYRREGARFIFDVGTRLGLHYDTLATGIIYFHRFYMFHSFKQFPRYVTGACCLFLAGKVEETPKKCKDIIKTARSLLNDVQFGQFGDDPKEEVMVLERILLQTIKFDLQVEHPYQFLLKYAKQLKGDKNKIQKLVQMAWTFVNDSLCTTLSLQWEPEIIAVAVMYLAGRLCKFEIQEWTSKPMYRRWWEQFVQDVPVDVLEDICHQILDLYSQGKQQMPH
- Sequence (Q16531 whole entry): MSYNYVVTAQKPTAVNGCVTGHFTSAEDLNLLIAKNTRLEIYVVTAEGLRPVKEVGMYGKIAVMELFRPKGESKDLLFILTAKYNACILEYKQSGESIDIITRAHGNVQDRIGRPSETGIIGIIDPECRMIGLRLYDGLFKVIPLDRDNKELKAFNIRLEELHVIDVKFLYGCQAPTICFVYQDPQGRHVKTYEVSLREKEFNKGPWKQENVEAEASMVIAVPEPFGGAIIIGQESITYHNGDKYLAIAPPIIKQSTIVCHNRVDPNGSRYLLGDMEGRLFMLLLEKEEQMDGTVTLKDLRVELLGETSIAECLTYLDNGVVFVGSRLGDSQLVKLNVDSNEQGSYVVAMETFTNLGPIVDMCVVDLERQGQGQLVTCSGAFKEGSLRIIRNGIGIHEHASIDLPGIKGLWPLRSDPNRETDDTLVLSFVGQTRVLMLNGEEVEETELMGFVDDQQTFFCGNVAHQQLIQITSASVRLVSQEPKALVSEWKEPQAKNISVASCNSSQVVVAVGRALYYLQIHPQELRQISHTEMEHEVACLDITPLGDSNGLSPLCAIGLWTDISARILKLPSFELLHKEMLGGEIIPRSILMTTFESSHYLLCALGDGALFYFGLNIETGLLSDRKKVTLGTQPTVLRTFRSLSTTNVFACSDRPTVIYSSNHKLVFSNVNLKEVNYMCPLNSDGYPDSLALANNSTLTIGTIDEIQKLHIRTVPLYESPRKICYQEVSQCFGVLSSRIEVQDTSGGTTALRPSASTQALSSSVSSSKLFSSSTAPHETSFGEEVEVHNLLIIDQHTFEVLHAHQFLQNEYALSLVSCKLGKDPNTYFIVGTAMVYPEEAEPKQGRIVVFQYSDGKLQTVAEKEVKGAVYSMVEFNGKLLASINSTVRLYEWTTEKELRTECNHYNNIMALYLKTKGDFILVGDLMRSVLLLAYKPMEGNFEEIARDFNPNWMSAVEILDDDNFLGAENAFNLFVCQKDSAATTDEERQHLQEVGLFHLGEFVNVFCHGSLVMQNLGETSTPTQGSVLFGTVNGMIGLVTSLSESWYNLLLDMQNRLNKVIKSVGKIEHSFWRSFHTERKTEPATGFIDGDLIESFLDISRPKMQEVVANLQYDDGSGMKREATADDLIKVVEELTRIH
- test: TR-FRET ternary complex formation assay (compound titration)
- Type: binding
- condition notes: sheet MOESM7; read-out: log TR-FRET EC50 (converted)
endpoint: EC50 (nM)

Consider the worked cases shown below.
# smiles entry, EC50, nM
rows = [
    ("CC[C@H](CO)Nc1nc(NCc2nc3c(F)c(F)ccc3[nH]2)c2ncn(C(C)C)c2n1", 40.9),
    ("CC[C@H](CO)Nc1nc(NCCCCc2ccccc2)c2ncn(C(C)C)c2n1", 349),
    ("CC[C@H](CO)Nc1nc(NCCCc2ccc(C)c(C)c2)c2ncn(C(C)C)c2n1", 17.7),
    ("CC[C@H](CO)Nc1nc(NCCCc2ccc(Cl)c(Cl)c2)c2ncn(C(C)C)c2n1", 20.8),
]

[a] CC[C@H](CO)Nc1nc(NCc2cnc(-c3ccccn3)cc2C2OCCO2)c2ncn(C(C)C)c2n1
[b] CCCCCCCCNc1nc(N[C@H](CC)CO)nc2c1ncn2C(C)C
[c] CC(C)n1cnc2c(NCc3ccc(-c4ccccn4)cc3)nc(NCc3c(Cl)cncc3Cl)nc21
Parameters: sort_field (EC50), sort_dir (desc). Hello, could you send the labels back in the order asked? Thank you.
b, a, c

###

- System: cyclin K–eGFP degradation reporter
- test: Cyclin K reporter stability analysis (dual-color cyclin K–eGFP reporter)
- Assay type: cell-based, human
- condition notes: source data sheet correlations; read-out: DC50
endpoint: DC50 (µM)

Consider the worked cases shown below.
# smiles entry, DC50 (µM)
measured = [
    ("CC[C@H](CO)Nc1nc(NCCCc2cccc(F)c2)c2ncn(C(C)C)c2n1", 0.253),
    ("CC[C@H](CO)Nc1nc(NCc2ccc(-c3ccccn3)c(=O)[nH]2)c2ncn(C(C)C)c2n1", 0.023),
    ("CC[C@H](CO)Nc1nc(NCc2ccc(-c3ccccn3)c(F)c2)c2ncn(C(C)C)c2n1", 0.172),
]

[a] CCc1cccc(CCCNc2nc(N[C@H](CC)CO)nc3c2ncn3C(C)C)c1
[b] CC[C@H](CO)Nc1nc(NCc2ccc3ccccc3c2)c2ncn(C(C)C)c2n1
When a and b are compared, which has the higher number for DC50? Refer to your chosen item by its label in the answer.
b
(b: 0.724 µM, a: 0.219 µM)

###

- experimental system: CDK9–cyclin T (Homo sapiens, UniProt P50750)
- Construct: purchased Thermo Fisher
- Sequence (P50750 whole entry): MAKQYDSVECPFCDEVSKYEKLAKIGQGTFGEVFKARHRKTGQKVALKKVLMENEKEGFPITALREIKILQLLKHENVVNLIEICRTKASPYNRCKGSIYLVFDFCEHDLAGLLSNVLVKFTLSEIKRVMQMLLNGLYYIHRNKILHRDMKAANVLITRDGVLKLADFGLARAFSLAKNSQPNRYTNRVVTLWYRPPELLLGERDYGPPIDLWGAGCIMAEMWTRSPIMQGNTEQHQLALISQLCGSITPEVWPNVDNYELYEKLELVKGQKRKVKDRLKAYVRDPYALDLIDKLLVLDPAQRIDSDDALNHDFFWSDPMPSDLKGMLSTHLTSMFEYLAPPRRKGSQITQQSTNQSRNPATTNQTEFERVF
- Sequence (O60563 whole entry partner): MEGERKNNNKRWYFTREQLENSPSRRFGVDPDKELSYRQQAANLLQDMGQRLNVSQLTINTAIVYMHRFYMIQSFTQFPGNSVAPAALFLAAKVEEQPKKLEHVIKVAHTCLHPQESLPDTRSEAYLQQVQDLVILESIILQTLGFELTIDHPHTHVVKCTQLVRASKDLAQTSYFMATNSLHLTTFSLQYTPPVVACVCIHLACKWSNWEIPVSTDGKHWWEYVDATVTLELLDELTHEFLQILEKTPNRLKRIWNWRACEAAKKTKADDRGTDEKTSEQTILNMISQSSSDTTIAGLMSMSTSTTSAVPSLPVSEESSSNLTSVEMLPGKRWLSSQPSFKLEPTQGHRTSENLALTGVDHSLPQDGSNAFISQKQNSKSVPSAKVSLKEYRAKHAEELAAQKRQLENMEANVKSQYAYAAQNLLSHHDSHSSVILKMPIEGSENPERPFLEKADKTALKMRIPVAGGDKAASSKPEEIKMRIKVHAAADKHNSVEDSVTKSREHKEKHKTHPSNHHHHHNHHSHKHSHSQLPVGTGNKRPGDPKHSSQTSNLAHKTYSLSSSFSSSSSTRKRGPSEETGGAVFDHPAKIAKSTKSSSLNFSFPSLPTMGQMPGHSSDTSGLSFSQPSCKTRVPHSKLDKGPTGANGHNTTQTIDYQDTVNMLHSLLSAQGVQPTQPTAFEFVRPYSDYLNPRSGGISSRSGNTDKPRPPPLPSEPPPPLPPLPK
- test: Lanthascreen kinase binding assay, CDK9
- condition notes: Supplementary Table 2; read-out: Lanthascreen IC50 [nM] CDK9
endpoint: IC50 (nM)

# molecule, IC50 / nM
rows = [
    ("O=C(CCn1cnc2ccccc2c1=O)Nc1ccc(Br)cn1", 873),
]

[I] O=C(CSc1nc2ccccc2[nH]1)Nc1ccc(Cl)cn1
[II] Cn1cc(-n2cnc3c(NCc4ccc(-c5ccccn5)cc4)nc(N4CCOCC4)nc32)cn1
[III] CCC(CO)Nc1nc(NCc2ccc(-c3ccccn3)cc2)c2ncn(C(C)C)c2n1 (stereo not drawn) [CR8, reference compound]
[IV] CC(C)n1cnc2c(NCc3ccc(-c4ccccn4)cc3)nc(N3CCOCC3)nc21
Arrange the 4 molecules by rising IC50, starting with the smallest. Hello, could you send the labels back in the order asked? Thank you.
III, IV, II, I
